- System: EKVX NSCLC
- ASSAY PROTOCOL: NCI-60 one-dose screen, 48 h (100 = growth as untreated, 0 = no growth, -100 = all killed)
- CONDITION SUMMARY: 10 µM unless noted
- Procedure: Growth inhibition of the EKVX human Non-Small Cell Lung tumor cell line is measured as a screen for anti-cancer activity. Cells are grown in 96 well plates and exposed to the test compound for 48 hours. Compounds are tested at a single concentration, which is 10^-5 M for most compounds. The reported endpoint is percent growth (GI% or GIPRCNT), where numbers from 0 - 100% represent growth inhibition, and numbers from -100% - 0 represent cell death. […]
About 83,000 compounds went through this panel and 20% of them were active in at least one assay; those are over-represented in the sample as a whole.
growth values for the compounds below.
Entry rule: numbers only, all in %.

Recorded growth, per entry:
>>> numeric_result("O=C(Nc1ncc(Cc2ccc(Cl)c(C(F)(F)F)c2)s1)c1ccc2nnsc2c1")
39.4
>>> numeric_result("CC(=O)Nc1nc2ccc(NS(=O)(=O)c3cccc4c(N(C)C)cccc34)cc2[nH]1")
75.9
>>> numeric_result("Cn1cc(-c2csc(-c3c[nH]c4ccc(Br)cc34)n2)c2cnccc21")
-78.3
>>> numeric_result("CCN(CC)CCOc1ccc(C(=C(C)c2ccc(Cl)cc2)c2ccc(OCCN(CC)CC)cc2)cc1")
26.1
>>> numeric_result("CC(C)N1CCN(Cc2ccc3c(NNC(=O)c4ccccc4)nc4cc(F)ccc4n23)CC1")
18.1
>>> numeric_result("COc1cc(-c2nc(SCCC(C)C)nc(Nc3ccccc3Cl)c2C#N)cc(OC)c1OC")
93.3
>>> numeric_result("N#Cc1c(-c2ccc(Cl)cc2)nc(SCC(=O)NC2=NN=C(c3ccccc3)CS2)[nH]c1=O")
86.2

Now consider a different compound.
Q: Item under review: O=C1N(Cc2ccccc2Cl)c2ccccc2C12NN=C(c1cccc(Cl)c1)S2 (stereo not drawn) . Reported growth?
Ans: -31

Every entry's value here was drawn from PubChem BioAssay (NCI).
